Assay procedure: recombinant UMI read abundance after kanamycin selection (control-corrected) (log10(CPM+1)); higher = more efficient recombination; extreme values may be limits of the assay; sequences stand for … in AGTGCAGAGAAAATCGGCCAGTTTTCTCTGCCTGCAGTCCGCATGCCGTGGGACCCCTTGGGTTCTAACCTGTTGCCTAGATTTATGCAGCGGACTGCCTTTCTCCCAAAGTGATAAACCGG…AGGTTGGTTTCACT; site = the 11-nt donor
Quick rule for you: recombinant UMI read abundance (log10) at 0.2 or higher means MET, lower means NOT MET.

Look over these answered cases.
[[record]]
macromolecule_sequence = "TGGTCCCCATGGACCGGTTTTCCCGGTAATCCGTATTTGTA (site TGCTCCCCTTA)"
qualitative_label = "NOT MET"

[[record]]
macromolecule_sequence = "GAGCTCACATGGACCGGTTTTCCCGGTAATCCGTATTTGCT (site GAGCTCACTAG)"
qualitative_label = "MET"


(Q) For this sequence, is measured recombinant UMI read abundance (log10) 0.2 or higher? GTTGCTCCATGGACCGGTTTTCCCGGTAATCCGTATTTGGT (site GTTGATCCTAC)
(A) NOT MET

(Q) Try CGTAATCCATGGACCGGTTTTCCCGGTAATCCGTATTTGAT (site CGGAATCCTAA) next.
(A) NOT MET

(Q) Try TCAACCGCATGGACCGGTTTTCCCGGTAATCCGTATTTGCG (site TCCACCGCTCG) next.
(A) NOT MET

(Q) Try TGCAGGGCATGGACCGGTTTTCCCGGTAATCCGTATTTGCC (site TGCAGGGCTGG) next.
(A) MET

(Q) Try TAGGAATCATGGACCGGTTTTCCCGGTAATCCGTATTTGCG (site TAGGAAACTCG) next.
(A) MET

(Q) Try AGTGAGACATGGACCGGTTTTCCCGGTAATCCGTATTTGGT (site AGTGAGACTAC) next.
(A) MET

(Q) Try GTAGTGGCATGGACCGGTTTTCCCGGTAATCCGTATTTGGT (site GAAGTGGCTAC) next.
(A) MET

(Q) Try TACATGACATGGACCGGTTTTCCCGGTAATCCGTATTTGTG (site TACATGACTCA) next.
(A) MET

====

Assay procedure: recombinant barcode read abundance after kanamycin selection (control-corrected) (log10(CPM+1)); higher = more efficient recombination; sequences stand for … in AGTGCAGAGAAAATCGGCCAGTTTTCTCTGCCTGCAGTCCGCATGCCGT…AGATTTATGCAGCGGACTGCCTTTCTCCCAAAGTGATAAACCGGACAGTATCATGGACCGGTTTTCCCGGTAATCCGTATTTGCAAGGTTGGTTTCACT; site = the 11-nt target
Hi there, I'd appreciate the recorded recombinant barcode read abundance (log10) for every entry that follows.
Answers are plain numbers.

[[record]]
macromolecule_sequence = "TTCTCTCCTTGGGTTCTAACCTGTTGCCT (site TTCTCTCCTAG)"
numeric_value = 0.206


Please give recombinant barcode read abundance (log10), item by item, for the list that follows.
1. TGCACTCCTTGGGTTCTAACCTGTTGCCT (site TACAGTCCTAG)
2. TATTCTCCTTGGGTTCTAACCTGTTGCGT (site TATTCTCCTAC)
3. GGTCCTGCTTGGGTTCTAACCTGTTGCCT (site TGTCCTGCTAG)
4. CCTTGCACTTGGGTTCTAACCTGTTGCGA (site CCTAGCACTTC)

(A)
[0.0234, 0.243, 0.174, 0.0223]

====

Assay procedure: recombinant UMI read abundance after kanamycin selection (control-corrected) (log10(CPM+1)); higher = more efficient recombination; extreme values may be limits of the assay; sequences stand for … in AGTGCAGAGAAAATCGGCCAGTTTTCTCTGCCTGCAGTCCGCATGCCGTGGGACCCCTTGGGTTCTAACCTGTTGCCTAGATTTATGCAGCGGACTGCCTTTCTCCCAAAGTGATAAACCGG…AGGTTGGTTTCACT; site = the 11-nt donor
Quick rule for you: recombinant UMI read abundance (log10) at 0.8 or higher means T, lower means F.

Look over these answered cases.
[[record]]
macromolecule_sequence = "AGTTCCACATGGACCGGTTTTCCCGGTAATCCGTATTTGTA (site AGTTCCACTTA)"
qualitative_label = "F"

[[record]]
macromolecule_sequence = "TAGCTAGCATGGACCGGTTTTCCCGGTAATCCGTATTTGAT (site TAGCTAGCTAT)"
qualitative_label = "T"

[[record]]
macromolecule_sequence = "CCGTTTACATGGACCGGTTTTCCCGGTAATCCGTATTTGAT (site CCGTTTACTAC)"
qualitative_label = "F"

[[record]]
macromolecule_sequence = "ATATATACATGGACCGGTTTTCCCGGTAATCCGTATTTGAC (site ATCTATACTGT)"
qualitative_label = "F"

[[record]]
macromolecule_sequence = "ACTAGGGCATGGACCGGTTTTCCCGGTAATCCGTATTTGGT (site ACTAGGGCTAC)"
qualitative_label = "T"

[[record]]
macromolecule_sequence = "TCTGAGACATGGACCGGTTTTCCCGGTAATCCGTATTTGCC (site TCTGAGACTGG)"
qualitative_label = "F"

[[record]]
macromolecule_sequence = "ACGAGAACATGGACCGGTTTTCCCGGTAATCCGTATTTGTT (site ACGAGAACTAA)"
qualitative_label = "T"

[[record]]
macromolecule_sequence = "AATTATGCATGGACCGGTTTTCCCGGTAATCCGTATTTGGG (site AATTATGCTGC)"
qualitative_label = "F"


(Q) For this sequence, is measured recombinant UMI read abundance (log10) 0.8 or higher? AATGTGGCATGGACCGGTTTTCCCGGTAATCCGTATTTGAC (site AATGTGTCTGT)
(A) F

(Q) Try GGCTACCCATGGACCGGTTTTCCCGGTAATCCGTATTTGTT (site GGCAACCCTAA) next.
(A) F

====

Assay procedure: recombinant barcode read abundance after kanamycin selection (control-corrected) (log10(CPM+1)); higher = more efficient recombination; sequences stand for … in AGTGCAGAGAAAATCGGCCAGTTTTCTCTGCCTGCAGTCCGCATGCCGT…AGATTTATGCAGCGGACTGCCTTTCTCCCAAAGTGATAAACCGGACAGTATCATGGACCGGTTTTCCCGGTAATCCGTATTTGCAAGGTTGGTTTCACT; site = the 11-nt target
Quick rule for you: recombinant barcode read abundance (log10) at 0.3 or higher means met, lower means not met.

Look over these answered cases.
[[record]]
macromolecule_sequence = "GGATGCACTTGGGTTCTAACCTGTTGCCA (site GGATACACTTG)"
qualitative_label = "not met"

[[record]]
macromolecule_sequence = "CTCGGATCTTGGGTTCTAACCTGTTGCTT (site CTCGGATCTCA)"
qualitative_label = "not met"

[[record]]
macromolecule_sequence = "CACGACCCTTGGGTTCTAACCTGTTGCCT (site CAAGACCCTAG)"
qualitative_label = "not met"


(Q) For this sequence, is measured recombinant barcode read abundance (log10) 0.3 or higher? TTCGGCTCTTGGGTTCTAACCTGTTGCTA (site TTCGGCTCTTA)
(A) met

(Q) Try TCAGGATCTTGGGTTCTAACCTGTTGCCT (site TCAGGATCTAG) next.
(A) met

(Q) Try GCCGAAACTTGGGTTCTAACCTGTTGCCT (site GCCGAAACTAG) next.
(A) not met

(Q) Try TGTCGAGCTTGGGTTCTAACCTGTTGCCG (site TGTAGAGCTCG) next.
(A) not met

(Q) Try TCCTATCCTTGGGTTCTAACCTGTTGCGT (site TCCTATCCTAC) next.
(A) met

(Q) Try TAAAAGCCTTGGGTTCTAACCTGTTGCCT (site TAAAAGCCTAG) next.
(A) met

(Q) Try AGGAGCCCTTGGGTTCTAACCTGTTGCTA (site AGGAGCCCTAA) next.
(A) not met

(Q) Try TGAGGGACTTGGGTTCTAACCTGTTGCCT (site CTCATAGCTTC) next.
(A) not met

====

Hi there, I'd appreciate the recorded recombinant barcode read abundance (log10) for every entry that follows.
Assay procedure: recombinant barcode read abundance after kanamycin selection (control-corrected) (log10(CPM+1)); higher = more efficient recombination; sequences stand for … in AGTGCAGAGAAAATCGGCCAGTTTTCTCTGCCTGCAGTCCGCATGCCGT…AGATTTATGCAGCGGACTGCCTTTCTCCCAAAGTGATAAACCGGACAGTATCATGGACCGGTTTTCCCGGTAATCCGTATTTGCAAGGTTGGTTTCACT; site = the 11-nt target

A selection of reference data follows.
[[record]]
macromolecule_sequence = "ACGCACACTTGGGTTCTAACCTGTTGCCT (site GCGCACACTAG)"
result = 0.236

[[record]]
macromolecule_sequence = "ATAGGTCCTTGGGTTCTAACCTGTTGCTG (site ATAGGTCCTCA)"
result = 2.91

[[record]]
macromolecule_sequence = "CTAACTCCTTGGGTTCTAACCTGTTGCCT (site ATACCTCCTAG)"
result = 0.242

[[record]]
macromolecule_sequence = "TGTGCGACTTGGGTTCTAACCTGTTGCAC (site TGAGCTACTGT)"
result = 0.0835

[[record]]
macromolecule_sequence = "CTCCTGCCTTGGGTTCTAACCTGTTGCCT (site CTCCTGCCTAG)"
result = 0.977


Please give recombinant barcode read abundance (log10), item by item, for the list that follows.
1. ACGAACCCTTGGGTTCTAACCTGTTGCCT (site ACGGACCCTAT)
2. ACTAGAGCTTGGGTTCTAACCTGTTGCCT (site ACTAGAGCTAG)
3. GGGGCGACTTGGGTTCTAACCTGTTGCCT (site GGGGCGTCTAG)
4. AGCTCGTCTTGGGTTCTAACCTGTTGCGG (site AGCTCGTCTCC)
5. AGCCCTCCTTGGGTTCTAACCTGTTGCAT (site AGCGCTCCTAC)
6. CACGACCCTTGGGTTCTAACCTGTTGCCT (site CATGACCCTAG)

(A)
[0.247, 0.198, 0.0176, 0.448, 0.0462, 0.16]

Please give recombinant barcode read abundance (log10), item by item, for the list that follows.
1. GGCCGGTCTTGGGTTCTAACCTGTTGCCT (site GGCCGGTCTAG)
2. TATTCTCCTTGGGTTCTAACCTGTTGCTT (site TATTCTCCTAT)

(A)
[1.78, 0.0253]
